# relative viability per record follows
system: BEN; experiment: relative viability (nuclei count vs DMSO), 5 days (fraction); higher = more cells survive; conditions: first compound 0.02 µM
Just the number, please, no unit attached.

| compound | obsValue |
| --- | --- |
| CCNC(=O)c1noc(-c2cc(C(C)C)c(O)cc2O)c1-c1ccc(CN2CCOCC2)cc1 [Luminespib] + C[C@]1(O)C[C@@H](c2nc(-c3ccc4ccc(-c5ccccc5)nc4c3)c3c(N)nccn32)C1 [Linsitinib] (partner 1 µM) | 0.427 |
| CN1CCN(CCOc2cc(OC3CCOCC3)c3c(Nc4c(Cl)ccc5c4OCO5)ncnc3c2)CC1 [Saracatinib] + CC(=O)Nc1cccc(-n2c(=O)n(C3CC3)c(=O)c3c(Nc4ccc(I)cc4F)n(C)c(=O)c(C)c32)c1 [Trametinib] (partner 0.02 µM) | 1.04 |
| CCNC(=O)c1noc(-c2cc(C(C)C)c(O)cc2O)c1-c1ccc(CN2CCOCC2)cc1 [Luminespib] + NC(=O)Nc1cc(-c2cccc(F)c2)sc1C(=O)N[C@H]1CCCNC1 [AZD7762] (partner 0.2 µM) | 0.405 |

Data request: Name the recorded relative viability for CN1CCN(CCOc2cc(OC3CCOCC3)c3c(Nc4c(Cl)ccc5c4OCO5)ncnc3c2)CC1 [Saracatinib] + Cc1cc(Nc2cc(N3CCN(C)CC3)nc(Sc3ccc(NC(=O)C4CC4)cc3)n2)n[nH]1 [Tozasertib] (partner 0.1 µM) .
Data returned: 0.518

Data request: Name the recorded relative viability for CN1CCN(CCOc2cc(OC3CCOCC3)c3c(Nc4c(Cl)ccc5c4OCO5)ncnc3c2)CC1 [Saracatinib] + Nc1nc2[nH]cc(CCc3ccc(C(=O)N[C@@H](CCC(=O)O)C(=O)O)cc3)c2c(=O)[nH]1 [Pemetrexed] (partner 0.2 µM) .
Data returned: 0.916

Data request: Name the recorded relative viability for CN1CCN(CCOc2cc(OC3CCOCC3)c3c(Nc4c(Cl)ccc5c4OCO5)ncnc3c2)CC1 [Saracatinib] + CS(=O)(=O)CCNCc1ccc(-c2ccc3ncnc(Nc4ccc(OCc5cccc(F)c5)c(Cl)c4)c3c2)o1 [Lapatinib] (partner 2 µM) .
Data returned: 0.745

Data request: Name the recorded relative viability for CN1CCN(CCOc2cc(OC3CCOCC3)c3c(Nc4c(Cl)ccc5c4OCO5)ncnc3c2)CC1 [Saracatinib] + Nc1ncn([C@H]2C[C@H](O)[C@@H](CO)O2)c(=O)n1 [Decitabine] (partner 2 µM) .
Data returned: 0.834

Data request: Name the recorded relative viability for CCNC(=O)c1noc(-c2cc(C(C)C)c(O)cc2O)c1-c1ccc(CN2CCOCC2)cc1 [Luminespib] + CC(=O)Nc1cccc(-n2c(=O)n(C3CC3)c(=O)c3c(Nc4ccc(I)cc4F)n(C)c(=O)c(C)c32)c1 [Trametinib] (partner 0.02 µM) .
Data returned: 0.481

====

# relative viability per record follows
tested on: LK-2; assay: relative viability (nuclei count vs DMSO), 5 days (fraction); higher = more cells survive; conditions: first compound 0.002 µM
Just the number, please, no unit attached.

| compound | relative viability |
| --- | --- |
| CCNC(=O)c1noc(-c2cc(C(C)C)c(O)cc2O)c1-c1ccc(CN2CCOCC2)cc1 [Luminespib] + CC1(C)CCC(c2ccc(Cl)cc2)=C(CN2CCN(c3ccc(C(=O)NS(=O)(=O)c4ccc(N[C@H](CCN5CCOCC5)CSc5ccccc5)c(S(=O)(=O)C(F)(F)F)c4)cc3)CC2)C1 [Navitoclax] (partner 0.5 µM) | 0.826 |
| CCNC(=O)c1noc(-c2cc(C(C)C)c(O)cc2O)c1-c1ccc(CN2CCOCC2)cc1 [Luminespib] + N=C(N)NC(=N)NCCc1ccccc1 [Phenformin] (partner 250 µM) | 0.474 |
| CCNC(=O)c1noc(-c2cc(C(C)C)c(O)cc2O)c1-c1ccc(CN2CCOCC2)cc1 [Luminespib] + O=C(c1cc(Cc2n[nH]c(=O)c3ccccc23)ccc1F)N1CCN(C(=O)C2CC2)CC1 [Olaparib] (partner 8 µM) | 0.884 |

Data request: Name the recorded relative viability for CCNC(=O)c1noc(-c2cc(C(C)C)c(O)cc2O)c1-c1ccc(CN2CCOCC2)cc1 [Luminespib] + COc1cc2c(Oc3ccc(NC(=O)C4(C(=O)Nc5ccc(F)cc5)CC4)cc3F)ccnc2cc1OCCCN1CCOCC1 [Foretinib] (partner 0.25 µM) .
Data returned: 1.66
